# System: P. falciparum strain Dd2
# runDescription: Inhibitor susceptibility dose-response assay (SYBR-Green I), P. falciparum Dd2
# Type: cell-based, Plasmodium falciparum
# conditionLabel: Plasmodium falciparum, DD2, 72 h, read-out: IC50 (S.D.), P. falciparum-Dd2
Below: a set of entries, each annotated with reported pIC50.
Scale for pIC50: -log10 of concentration given in mol/L; no unit attached.

Sample answers from the record:
>>> df
                                   compound        targetortestsystem  measured
0  O=C(O)C1=CC(=C(c2ccc(O)c(C(=O)O)c2)c2ccc(O)c(C(=O)O)c2)C=CC1=O [Aurintricarboxylic acid (ATA), Aurintricarboxylic acid]  P. falciparum strain Dd2      4.36
1  CCCC[C@@H](C=O)NC(=O)[C@H](CC(C)C)NC(=O)OCc1ccccc1 [Calpeptin]  P. falciparum strain Dd2      5.89
2  Nc1ccc(C2CCN(C(=O)c3ccc(Oc4ccc(C(F)(F)F)cc4)cc3)CC2)nn1 [BI 749327]  P. falciparum strain Dd2      4.66
3  C[C@@H](Oc1cc(-c2cnn(C3CCNCC3)c2)cnc1N)c1c(Cl)ccc(F)c1Cl [Crizotinib]  P. falciparum strain Dd2      6.85

Challenge: What pIC50 value was documented for this compound, COc1ccc2c(c1)c(C1=C(c3c[nH]c4ccccc34)C(=O)NC1=O)cn2CCCN(C)C [Go6983] ?
Response given: 5.70

Challenge: Need pIC50, item COc1ccc(S(=O)(=O)N(CCO)c2ccccc2CN(C)C/C=C/c2ccc(Cl)cc2)cc1 [KN-93 Phosphate]
Response given: 5.52

Challenge: Returns the measured pIC50 for the input compound. Input: Cn1nccc1Nc1nccc(-c2cc3c(s2)C(C)(C)N(CCN2CCOCC2)C3=O)n1 [LY3214996]
Response given: 5.24

Challenge: Look at this compound and give its reported pIC50. O=C1Nc2ccc(I)cc2/C1=C/c1cc(Br)c(O)c(Br)c1 [GW5074]
Response given: 4.89

Challenge: So what does the record say about pIC50 for CCCCCCCCc1ccc(CCC(N)(CO)CO)cc1 [FTY720] ?
Response given: 5.46
